Target: human A1 receptor (Homo sapiens (Human), UniProt P30542)
Sequence (P30542 whole entry): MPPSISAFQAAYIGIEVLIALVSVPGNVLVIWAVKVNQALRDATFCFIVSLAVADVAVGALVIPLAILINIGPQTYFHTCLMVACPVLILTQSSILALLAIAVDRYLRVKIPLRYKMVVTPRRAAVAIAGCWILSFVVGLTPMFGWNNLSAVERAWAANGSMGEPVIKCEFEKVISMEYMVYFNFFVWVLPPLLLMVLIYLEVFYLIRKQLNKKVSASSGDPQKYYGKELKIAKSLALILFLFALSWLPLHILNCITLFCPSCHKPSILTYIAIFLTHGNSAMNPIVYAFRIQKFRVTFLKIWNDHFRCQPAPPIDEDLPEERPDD
Procedure summary: A1 competition binding assay using Scintillation Proximity technology; selectivity = A1 binding Ki / A2a binding Ki
Condition: A1 binding Ki divided by A2a binding Ki
Readout label: A2a selectivity (A2a A1 binding selectivity)

# annotated cases, reported A2a selectivity (A2a A1 binding selectivity) shown
COc1cccc2c(C(=O)NCc3ncccc3F)nc(N)nc12 [Example 25] ... 221
N#Cc1cccc2c(C(=O)NCc3cccc4cccnc34)nc(N)nc12 [Example 100] ... 163
COc1cccc2c(C(=O)NCc3ccc4ccccc4n3)nc(N)nc12 [Example 30] ... 138

a. [2H]C([2H])(NC(=O)c1nc(N)nc2c(OC)cccc12)c1cccc(C([2H])([2H])c2cncc(-c3ncco3)c2)n1 [Example 108]
b. COc1cccc2c(C(=O)NCc3cccc(C4(O)CCC4)n3)nc(N)nc12 [Example 4]
QUERY: Please indicate which has the smaller reported A2a selectivity (A2a A1 binding selectivity): a , or b . Give the label under which the chosen entry appears.
RESULT: a

A. COc1cccc2c(C(=O)NCc3ccccc3-c3cccnc3)nc(N)nc12 [Example 41]
B. Cc1ccc(F)c(CNC(=O)c2nc(N)nc3c(F)cccc23)n1 [Example 76]
C. Nc1nc(C(=O)NCc2cccc(Cc3ccccc3F)n2)c2cccc(F)c2n1 [Example 111]
D. Cc1cccn2cc(CNC(=O)c3nc(N)nc4c(F)cccc34)nc12 [Example 81]
E. CC(C)Oc1cccc(-c2cccc(CNC(=O)c3nc(N)nc4c(F)cccc34)n2)c1 [Example 66]
QUERY: Rank descending by A2a selectivity (A2a A1 binding selectivity). Response field: labels, in requested order.
RESULT: B, A, C, D, E
(B: 115, A: 56, C: 28, D: 12, E: 3)

1. COc1cccc2c(C(=O)N[C@@H]3CCc4ccccc43)nc(N)nc12 [Example 33]
2. COc1cccc2c(C(=O)NCc3ccc(F)cn3)nc(N)nc12 [Example 26]
3. COc1cccc2c(C(=O)NCc3ncccc3C)nc(N)nc12 [Example 24]
4. CSc1cccc2c(C(=O)NCc3cccc4cccnc34)nc(N)nc12 [Example 94]
QUERY: Place the items in sequence of falling A2a selectivity (A2a A1 binding selectivity). Answer with the labels in sequence, matching the requested order.
RESULT: 3, 2, 1, 4
